Tested on: Clone20 osteoblast Shn3 3'UTR firefly luciferase, 24 h
Procedure Text: Shn3 3'UTR reporter inhibitors, dose response, cell-based, Clone20 osteoblasts, luminescence, dry powder, set 2 (AID 743417)
Inconclusive results are not listed.
Quantity Measured: AC50

- Compound: "N#CC(c1cccc(Cl)c1)c1ccc2c(C(F)(F)F)cc(C(F)(F)F)nc2n1 (stereo not given)"
  Meas Value: "689 nM"
- Compound: "C=C1C(=O)C23C(O)C1CCC2C12CCCC(C)(COC(C)=O)C1C(O)C3(O)OC2 (stereo not given)"
  Meas Value: "771 nM"
- Compound: "CSc1cccc(NS(=O)(=O)c2ccc3c(c2)CCN3C(C)=O)c1"
  Meas Value: "1490 nM"
- Compound: "COc1ccc(OC)c(/C=C/C(=O)N2C(=O)c3cccc(N)c3C2=O)c1"
  Meas Value: "3250 nM"
- Compound: "CCCCCn1c(=N)n(CC(O)COc2ccccc2OC)c2ccccc21 (stereo not given)"
  Meas Value: "2120 nM"
- Compound: "CC(C)(C)C(=O)Nc1cc2nn(-c3ccccc3)nc2cc1Cl"
  Meas Value: "5160 nM"
- Compound: "COc1ccc(-c2noc(CCC(=O)NCCCN3CCC(Cc4ccccc4)CC3)n2)cc1"
  Meas Value: "4030 nM"
- Compound: "COC(=O)C1=C(c2ccc(OCc3ccccc3)cc2)C[C@@H]2CC[C@H]1N2C(=O)NCCCCc1ccccc1"
  Meas Value: "2800 nM"
- Compound: "CCc1ccc(CNC(=O)c2cc3c(C)nc4ccccc4c3o2)cc1"
  Meas Value: "2020 nM"
- Compound: "O=[N+]([O-])c1ccc(Sc2cccc3cccnc23)c([N+](=O)[O-])c1"
  Meas Value: "1710 nM"

* * *

Reported AC50 is given for each of the following compounds.
Tested on: Clone20 osteoblast Shn3 3'UTR firefly luciferase, 24 h
Procedure Text: Shn3 3'UTR reporter inhibitors, dose response, cell-based, Clone20 osteoblasts, luminescence, dry powder, set 2 (AID 743417)
Records with an inconclusive call do not appear.
Quantity Measured: AC50

- Compound: "COc1ccc2c(c1)c(CC(=O)Nc1cc(C)ccc1C)c(C)n2C(=O)c1ccc(Cl)cc1"
  Target System: "Clone20 osteoblast Shn3 3'UTR firefly luciferase, 24 h"
  Meas Value: "5.69 µM"
- Compound: "COCCNc1nc(NCc2ccc(C(C)C)cc2)c2sccc2n1"
  Target System: "Clone20 osteoblast Shn3 3'UTR firefly luciferase, 24 h"
  Meas Value: "3.95 µM"
- Compound: "O=C(Nc1ccc(Cc2ccncc2)cc1)c1ccc([N+](=O)[O-])o1"
  Target System: "Clone20 osteoblast Shn3 3'UTR firefly luciferase, 24 h"
  Meas Value: "2.71 µM"
- Compound: "C=CCOc1nc2c(c(=O)n(C)c(=O)n2C)n1Cc1ccc(Cl)cc1"
  Target System: "Clone20 osteoblast Shn3 3'UTR firefly luciferase, 24 h"
  Meas Value: "1.03 µM"
- Compound: "CCOc1ccccc1Nc1cc(C)nc2ccccc12"
  Target System: "Clone20 osteoblast Shn3 3'UTR firefly luciferase, 24 h"
  Meas Value: "8.14 µM"
- Compound: "CC1CC(C)CC(C)C(O)C(C#N)=CC=CCC(C2CCCC2C(=O)O)OC(=O)CC(O)C(C)C1 (stereo unspecified)"
  Target System: "Clone20 osteoblast Shn3 3'UTR firefly luciferase, 24 h"
  Meas Value: "< 0.26 µM"
- Compound: "Cc1cc(Sc2ncnc(N)c2[N+](=O)[O-])ncn1"
  Target System: "Clone20 osteoblast Shn3 3'UTR firefly luciferase, 24 h"
  Meas Value: "5.7 µM"
- Compound: "O=C(CCN1CCc2ccccc2C(O)(c2ccccc2)C1)c1ccc2c(c1)OCCO2 (stereo unspecified)"
  Target System: "Clone20 osteoblast Shn3 3'UTR firefly luciferase, 24 h"
  Meas Value: "23.1 µM"
- Compound: "Cc1ccc(NC(=O)Cc2nn(C)c(=O)c3ccccc23)cc1F"
  Target System: "Clone20 osteoblast Shn3 3'UTR firefly luciferase, 24 h"
  Meas Value: "0.73 µM"
- Compound: "COc1ccc(-n2ncc(Cl)c(Cl)c2=O)cc1"
  Target System: "Clone20 osteoblast Shn3 3'UTR firefly luciferase, 24 h"
  Meas Value: "3.36 µM"
- Compound: "O=C(Nc1nc(-c2ccccn2)cs1)c1ccc(F)c(S(=O)(=O)N2CCOCC2)c1"
  Target System: "Clone20 osteoblast Shn3 3'UTR firefly luciferase, 24 h"
  Meas Value: "1.32 µM"

* * *

Test system: Clone20 osteoblast Shn3 3'UTR firefly luciferase, 24 h
Procedure Text: Shn3 3'UTR reporter inhibitors, dose response, cell-based, Clone20 osteoblasts, luminescence, dry powder, set 2 (AID 743417)
Inconclusive results are not listed.
Recorded AC50 values for a group of molecules are listed next.
Quantity Measured: AC50

- Molecule: "Nc1nc(N)c(-c2cccc(C(F)(F)F)c2)c(Cc2cccc(C(F)(F)F)c2)n1"
  Target System: "Clone20 osteoblast Shn3 3'UTR firefly luciferase, 24 h"
  Meas Value: "3600 nM"
- Molecule: "CCc1c(C)nc2ncnn2c1NCCc1ccc(Cl)cc1"
  Target System: "Clone20 osteoblast Shn3 3'UTR firefly luciferase, 24 h"
  Meas Value: "2170 nM"
- Molecule: "COc1cc2cc(C(=O)N3CC(COS(C)(=O)=O)c4ccc(O)cc43)[nH]c2c(OC)c1OC (stereo unspecified)"
  Target System: "Clone20 osteoblast Shn3 3'UTR firefly luciferase, 24 h"
  Meas Value: "< 260 nM"
- Molecule: "COCCN(C(=O)COC(=O)C1CCC(C(C)(C)C)CC1)c1c(N)n(Cc2ccccc2)c(=O)[nH]c1=O (stereo unspecified)"
  Target System: "Clone20 osteoblast Shn3 3'UTR firefly luciferase, 24 h"
  Meas Value: "5150 nM"
- Molecule: "COc1ccc(OC)c2sc(N(CCN(C)C)C(=O)/C=C/c3cccs3)nc12"
  Target System: "Clone20 osteoblast Shn3 3'UTR firefly luciferase, 24 h"
  Meas Value: "12700 nM"
- Molecule: "O=[N+]([O-])c1cc(S(=O)(=O)C(F)(F)F)ccc1Sc1nc2ccccc2s1"
  Target System: "Clone20 osteoblast Shn3 3'UTR firefly luciferase, 24 h"
  Meas Value: "2450 nM"
- Molecule: "O=C(/C=C/c1ccc(F)cc1)NC(=S)NNC(=O)c1cnccn1"
  Target System: "Clone20 osteoblast Shn3 3'UTR firefly luciferase, 24 h"
  Meas Value: "1390 nM"
- Molecule: "O=C(c1cc(COc2ccc3ncccc3c2)on1)N1CCCCCC1"
  Target System: "Clone20 osteoblast Shn3 3'UTR firefly luciferase, 24 h"
  Meas Value: "703 nM"
- Molecule: "CS(=O)(=O)c1ncc(Cl)c(C(=O)Nc2ccc(OC(F)F)cc2)n1"
  Target System: "Clone20 osteoblast Shn3 3'UTR firefly luciferase, 24 h"
  Meas Value: "682 nM"
- Molecule: "CCCC(=O)NC(c1ccc(N(C)C)cc1)c1ccc2cccnc2c1O (stereo unspecified)"
  Target System: "Clone20 osteoblast Shn3 3'UTR firefly luciferase, 24 h"
  Meas Value: "916 nM"
- Molecule: "CCN(CC)C(=S)Sc1c(-c2ccccc2)c2cc(Cl)ccc2[nH]c1=O"
  Target System: "Clone20 osteoblast Shn3 3'UTR firefly luciferase, 24 h"
  Meas Value: "27000 nM"
- Molecule: "CCN(CC)CCNC(=O)CSc1c2c(nc3cc(Cl)ccc13)CCCC2"
  Target System: "Clone20 osteoblast Shn3 3'UTR firefly luciferase, 24 h"
  Meas Value: "14900 nM"
- Molecule: "CCOC(=O)N1CCN(C(=O)c2ccc3c(c2)N(Cc2ccc(C)cc2)CCS3)CC1"
  Target System: "Clone20 osteoblast Shn3 3'UTR firefly luciferase, 24 h"
  Meas Value: "6000 nM"
- Molecule: "Cn1nccc1C(=O)NC1CCCc2c1cnn2-c1ccccc1F (stereo unspecified)"
  Target System: "Clone20 osteoblast Shn3 3'UTR firefly luciferase, 24 h"
  Meas Value: "370 nM"
- Molecule: "COc1ccc(CNc2ncnc3ccccc23)cc1"
  Target System: "Clone20 osteoblast Shn3 3'UTR firefly luciferase, 24 h"
  Meas Value: "674 nM"
- Molecule: "Oc1cc(-c2cccnc2)cc2cccnc12"
  Target System: "Clone20 osteoblast Shn3 3'UTR firefly luciferase, 24 h"
  Meas Value: "9270 nM"
- Molecule: "CCOc1cc(S(=O)(=O)NCc2ccncc2)ccc1Cl"
  Target System: "Clone20 osteoblast Shn3 3'UTR firefly luciferase, 24 h"
  Meas Value: "< 260 nM"
- Molecule: "CC(=O)N1CCCc2cc(S(=O)(=O)N3CCCC(C(=O)N4CCN(c5cccc(Cl)c5)CC4)C3)ccc21 (stereo unspecified)"
  Target System: "Clone20 osteoblast Shn3 3'UTR firefly luciferase, 24 h"
  Meas Value: "1900 nM"
- Molecule: "CCC(C)(O)C(=O)OC1C(=O)OC2CC3C(C)=CC(=O)C(O)C3(C)C3C4(O)OCC23C1C(C)C4O (stereo unspecified)"
  Target System: "Clone20 osteoblast Shn3 3'UTR firefly luciferase, 24 h"
  Meas Value: "866 nM"
- Molecule: "CCOc1ccccc1NC(=O)c1nc(S(=O)(=O)Cc2ccccc2)ncc1Cl"
  Target System: "Clone20 osteoblast Shn3 3'UTR firefly luciferase, 24 h"
  Meas Value: "376 nM"
- Molecule: "COC(=O)C12OCC34C(CC5C(C)=C(O)C(=O)CC5(C)C3C(O)C1O)OC(=O)C(OC(=O)C=C(C)C)C24 (stereo unspecified)"
  Target System: "Clone20 osteoblast Shn3 3'UTR firefly luciferase, 24 h"
  Meas Value: "< 260 nM"
